Source of measurements: ChEMBL document CHEMBL1201862

- Tested on: NCI-H226
- experiment.description: NCI tumour cell line growth inhibition, 48 h
The source made the active and inactive calls. Cut-off read from the data, not from the text of the source: active = GI50 up to about 1.1 µM and inactive = higher.
Could you please pick one outcome from this set? active, inactive

Examples with answers:
| molecule | label.value |
| --- | --- |
| O=C(OCC1CC(C2(O)CCCCC2)C(=O)O1)c1ccccc1 (stereo not given) | inactive |
| CC(=O)NNc1nc(C)c(C(=O)NNC(=O)C(=O)Nc2c(C)cccc2C)s1 | inactive |
| Cc1ccc(NC(Nc2ccc(C)cc2C)=C(C(Cl)=C(Cl)Cl)[N+](=O)[O-])c(C)c1 | inactive |
| CCOC(=O)C12CN(C34CC5CC(CC(C5)C3)C4)CC(C(=O)OCC)(C1=O)C(c1ccccc1)OC2c1ccccc1 (stereo not given) | inactive |
| NS(=O)(=O)c1ccccc1C(=O)N/N=C(\c1nc2ccc([N+](=O)[O-])cc2[nH]c1=O)C(O)c1ccc([N+](=O)[O-])cc1 (stereo not given) | inactive |

[in] Give the logged outcome of this assay for the following molecule: COc1ccc(C(O)/C(=C/n2ccnc2)c2ccccc2)cc1OC (stereo not given)
[out] inactive

[in] Also check Cc1ccc(Cc2n[nH]c(=O)n2Nc2ccccc2)cc1
[out] inactive

[in] Also check N#CC1=C2Sc3ccccc3N2[C@H](c2ccccc2)[C@H]2COC(=O)[C@@H]12
[out] inactive

[in] Also check COc1cc(/C=C/c2ccc(OC)c(OC)c2)oc(=O)c1
[out] inactive

[in] Also check Clc1nc(Cl)nc(NC23CC4CC(CC(C4)C2)C3)n1
[out] inactive

[in] Also check O=C(O)CNS(=O)(=O)c1ccc(NC(=O)CI)cc1
[out] inactive

[in] Also check Cc1ccc(/C=N\NC(=O)c2ccncc2)s1
[out] inactive

[in] Also check CCNC(=S)N/N=C/c1cc(OC)ccc1O
[out] inactive

[in] Also check COC1(CC[C@@H](C)COC2OC(CO)C(O)C(O)C2O)O[C@H]2C[C@H]3[C@@H]4CC=C5C[C@@H](OC6OC(CO)C(OC7OC(C)C(O)C(O)C7O)C(O)C6OC6OC(C)C(O)C(O)C6O)CC[C@]5(C)[C@H]4CC[C@]3(C)[C@H]2[C@@H]1C (stereo not given in full)
[out] inactive

[in] Also check Cc1ccc(/C=C/C(=O)c2cccc3ccccc23)cc1
[out] inactive

[in] Also check CCOC(=O)C1=C(C)N2CCCOC2(C)C(C(=O)OC)C1c1cccc([N+](=O)[O-])c1 (stereo not given)
[out] inactive

[in] Also check CC(C)OCN/C(N)=N\C#N
[out] inactive

[in] Also check CCOC(=O)C1=C(C)N(NC(N)=O)C2(N)N(NC(N)=O)C(C)=C(C(=O)OCC)C12C#N (stereo not given)
[out] inactive

[in] Also check C/C(=N\NC(=S)N(C)C)c1ccccn1
[out] active

[in] Also check O=c1[nH]c(=O)n(C2OC(CO)C(O)C2O)cc1OCC(F)(F)F (stereo not given)
[out] inactive

----------
- System: OVCAR-8
- experiment.description: NCI tumour cell line growth inhibition, 48 h
Activity calls are given as the source filed them. Rule as the data show it: active = GI50 up to about 1.1 µM and inactive = higher. Non-standard residues stand in square brackets, D forms with d. Residues, ends and D or L forms follow the SMILES beside them. ξ: configuration not given here. ξLac(3-iPr) = CC(C)CC(O)C(=O)O; NMeV = CN[CH](C(=O)O)C(C)C; NMeA = CN[CH](C)C(=O)O; βAla = NCCC(=O)O
property: GI50

Below, each entry is followed by its recorded GI50 result.
| compound | result |
| --- | --- |
| O=c1oc2nc(-c3ccccc3)cc(C(F)(F)F)c2n1Cc1ccccc1 | 42.4 µM (inactive) |
| C1=C[C@]2(CCC13OCCO3)COc1ccccc12 | 32.4 µM (inactive) |
| O=C(c1ccccc1)C1S(=O)(=O)OCCOS1(=O)=O | > 100 µM (inactive) |
| CC1(C)OCC(C2OC(OC(=O)c3ccc([N+](=O)[O-])cc3)C3OC(C)(C)OC23)O1 (stereo not given) | > 100 µM (inactive) |
| CC(O)C(O)C(O)C(/C=N\Nc1ccccc1)=N/Nc1ccccc1 (stereo not given) | 13.2 µM (inactive) |

Look at each compound and report its GI50.
1. NCCCN(CCCCN(CCCN)Cc1ccccc1)Cc1ccccc1
2. Cc1ccc(Cc2n[nH]c(=O)n2Nc2ccccc2)cc1
3. O=C1C=CC(=O)c2c1ccc1c3ccccc3n(Cc3ccc([N+](=O)[O-])cc3)c21
4. CCOP(=O)(OCC)/C(=C\n1c(=S)[nH]c2cc(C)ccc21)C(=O)OC
5. Cc1cc(C#N)c[n+](C)c1

[out]
1. 49.5 µM (inactive)
2. > 100 µM (inactive)
3. > 100 µM (inactive)
4. > 100 µM (inactive)
5. > 100 µM (inactive)

Look at each compound and report its GI50.
1. O=C1Cc2c([nH]c3ccccc23)C2(CC3CCCCN13)OCCO2 (stereo not given)
2. Nc1n/c(=N\c2ccccc2)ss1
3. CCC(C)C1NC(=O)C2CCCN2C(=O)C(CC(C)C)OC(=O)CCNC(=O)C(C)N(C)C(=O)C(C(C)C)N(C)C1=O (stereo not given) (cyclo([ξLac(3-iPr)]PI[NMeV][NMeA][βAla]); configuration not given here)
4. NS(=O)(=O)c1ccccc1C(=O)N/N=C(\c1nc2ccc([N+](=O)[O-])cc2[nH]c1=O)C(O)c1ccc([N+](=O)[O-])cc1 (stereo not given)
5. O=[N+]([O-])c1ccc2nc3ccccc3cc2c1
6. COc1ccc(-c2csc(Cc3nc4c(Br)cc(Br)cc4c(=O)n3-c3ccc(OC)cc3)n2)cc1
7. COc1cc(-c2coc3c(OC)c(OC4OC(COC5OC(C)C(O)C(O)C5O)C(O)C(O)C4O)c(OC)c(O)c3c2=O)cc(C)c1O (stereo not given)

[out]
> 100 µM (inactive)
> 100 µM (inactive)
3.48 µM (inactive)
> 100 µM (inactive)
1.26 µM (inactive)
> 100 µM (inactive)
23.6 µM (inactive)

Look at each compound and report its GI50.
1. CCOC(=O)c1c(CN2CCNCC2)nc2ccc(Cl)cc2c1-c1ccccc1
2. O=C(N[C@@H](c1ccccc1)[C@@H](O)C(=O)OCc1ccc([N+](=O)[O-])cc1)c1ccccc1

[out]
4.21 µM (inactive)
> 100 µM (inactive)

[in] Field request: GI50 | item: CC(=O)c1c2c(cc3c1CCC3)CCC2
[out] > 100 µM (inactive)
